Tested on: T1, rat PTH-1R (rat PTHR endogenously expressed on UMR-106 rat osteosarcoma cells) (rat, UniProt P25961 27-591)
T1 sequence (looked up): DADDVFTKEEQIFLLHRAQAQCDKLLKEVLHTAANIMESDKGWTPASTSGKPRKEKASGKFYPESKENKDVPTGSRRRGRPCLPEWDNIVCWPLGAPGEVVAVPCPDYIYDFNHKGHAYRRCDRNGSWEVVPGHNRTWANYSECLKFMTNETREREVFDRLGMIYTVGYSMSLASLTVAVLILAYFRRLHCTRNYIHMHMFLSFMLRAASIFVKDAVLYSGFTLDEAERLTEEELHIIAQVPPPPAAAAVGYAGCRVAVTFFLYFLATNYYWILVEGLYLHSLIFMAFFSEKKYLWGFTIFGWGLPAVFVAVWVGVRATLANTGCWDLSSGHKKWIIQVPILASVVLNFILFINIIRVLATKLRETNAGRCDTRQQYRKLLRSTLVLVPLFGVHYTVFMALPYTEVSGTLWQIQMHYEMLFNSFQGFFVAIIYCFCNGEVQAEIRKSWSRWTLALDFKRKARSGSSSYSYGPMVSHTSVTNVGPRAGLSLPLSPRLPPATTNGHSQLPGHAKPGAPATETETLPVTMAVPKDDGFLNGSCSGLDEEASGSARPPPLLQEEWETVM
Experiment: cell-based or functional assay
*1 amine or outer side, *2 acyl side, *3 side chain or, on linkers, in order; H or OH if unused. Where no end group is shown, it is not given here. [ ]: non-standard residue; d: D form. αMe‑APPA = 2-amino-2-methyl-5-phenylpentanoic acid, C[C@@](CCCc1ccccc1)(N[*:1])C(=O)[*:2]; Bip(2'-Et-4'-OMe) = CCc1cc(OC)ccc1-c1ccc(C[C@H](N)C(=O)O)cc1; Arg(NO2) = N=C(NCCC[C@H](N)C(=O)O)N[N+](=O)[O-]; αMePhe(2,6-F2) = C[C@](N)(Cc1c(F)cccc1F)C(=O)O; αMePhe(2-F) = C[C@](N)(Cc1ccccc1F)C(=O)O; αMeW = C[C@](N)(Cc1c[nH]c2ccccc12)C(=O)O; hhPhe = N[C@@H](CCCc1ccccc1)C(=O)O; hArg = N=C(N)NCCCC[C@H](N)C(=O)O; Cit = NC(=O)NCCC[C@H](N)C(=O)O; αMeV = CC(C)[C@](C)(N)C(=O)O; αMeM = CSCC[C@](C)(N)C(=O)O; Nle = CCCC[C@H](N)C(=O)O; Ac5c = NC1(C(=O)O)CCCC1; Ac3c = NC1(C(=O)O)CC1; Aib = CC(C)(N)C(=O)O
Value type: cAMP released with respect to control, 100 nM peptide, UMR-106 cells

INPUT: Name the recorded cAMP released with respect to control, 100 nM peptide, UMR-106 cells for [Ac5c]V[Aib]EIQ[αMePhe(2,6-F2)][Nle]HQ[hArg]A[Cit][Bip(2'-Et-4'-OMe)][hhPhe] [Seq. ID. 813] .
OUTPUT: 110 percent of control

More entries:
INPUT: Name the recorded cAMP released with respect to control, 100 nM peptide, UMR-106 cells for [Aib]V[Aib]EIQ[αMePhe(2,6-F2)][Nle]HQ[αMePhe(2,6-F2)]A[Aib][αMePhe(2,6-F2)] [Seq. ID. 501] .
OUTPUT: 87 percent of control

INPUT: # iterate: [Ac3c]V[Aib]EIQ[αMePhe(2-F)][Nle]HQ[hArg]A[Arg(NO2)][αMePhe(2,6-F2)][hhPhe] [Seq. ID. 712]
OUTPUT: 69 percent of control

INPUT: # iterate: [αMeV][Ac5c]V[Aib]EIQL[αMeM]HQ[hArg]A[hArg][Bip(2'-Et-4'-OMe)][αMe‑APPA] [Seq. ID. 926]
OUTPUT: 72 percent of control

INPUT: # iterate: [Aib]V[Ac5c]EIQ[αMePhe(2,6-F2)][Nle]HQ[hArg][Aib][Arg(NO2)][αMePhe(2-F)] [Seq. ID. 256]
OUTPUT: 87 percent of control

INPUT: # iterate: [Aib]V[Aib]EIQ[αMePhe(2,6-F2)][Nle]HQ[Aib][Aib][Arg(NO2)][αMePhe(2,6-F2)] [Seq. ID. 598]
OUTPUT: 119 percent of control

INPUT: # iterate: V[Ac3c]V[Aib]EIQL[αMeM]HQ[hArg]A[hArg][αMeW][αMe‑APPA] [Seq. ID. 950]
OUTPUT: 81 percent of control
